Cited source for all entries: ChEMBL document CHEMBL1154316

assay: Half life in mouse liver microsomes at 3 uM measured up to 60 mins; format: ADME, Microsome; settings: liver microsomes
Where half-life at 3 µM equals or exceeds 30 min, the correct label is fulfilled; where it does not, the label is not fulfilled.

Is the recorded value of half-life at 3 µM equal to or greater than 30 min for this compound? O=C(Nc1ccccc1Cl)c1cnc2ccccn12
not fulfilled

Is the recorded value of half-life at 3 µM equal to or greater than 30 min for this compound? O=C(Nc1ccccc1Cl)c1cnc2ccc(C3CCNCC3)cn12.O=C(O)C(=O)O
fulfilled

Is the recorded value of half-life at 3 µM equal to or greater than 30 min for this compound? O=C(Nc1ccccc1Cl)c1cnn2ccc(-c3ccccc3)cc12
not fulfilled

Is the recorded value of half-life at 3 µM equal to or greater than 30 min for this compound? O=C(Nc1ccccc1Cl)c1cnn2ccc(N3CCCCC3)cc12
not fulfilled

Continuing:
Is the recorded value of half-life at 3 µM equal to or greater than 30 min for this compound? O=C(Nc1ccccc1Cl)c1cnc2ccc(-c3ccccc3)cn12
fulfilled

Is the recorded value of half-life at 3 µM equal to or greater than 30 min for this compound? O=C(Nc1ccccc1Cl)c1cnc2ccc(N3CCCCC3)cn12
not fulfilled

###

assay: Intrinsic clearance in mouse liver microsomes assessed as per mg of protein at 3 uM measured up to 60 mins; type: ADME, Microsome; conditions: liver microsomes
value-kind: microsomal CLint at 3 µM (µL/min/mg)
One number for each entry, in µL/min/mg.

Field: example entries. Status: answers known.
Report measured microsomal CLint at 3 µM; entry is O=C(Nc1ccccc1Cl)c1cnc2ccc(-c3ccccc3)cn12
26

Report measured microsomal CLint at 3 µM; entry is O=C(Nc1ccccc1Cl)c1cnc2ccccn12
361

Report measured microsomal CLint at 3 µM; entry is O=C(Nc1ccccc1Cl)c1cnn2ccc(N3CCCCC3)cc12
167

Report measured microsomal CLint at 3 µM; entry is O=C(Nc1ccccc1Cl)c1cnn2ccc(-c3ccccc3)cc12
51

Then there is this compound:
Report measured microsomal CLint at 3 µM; entry is O=C(Nc1ccccc1Cl)c1cnc2ccc(N3CCCCC3)cn12
71
